# TGT: human AR (androgen receptor) (Homo sapiens)
# Sequence (P10275 whole entry): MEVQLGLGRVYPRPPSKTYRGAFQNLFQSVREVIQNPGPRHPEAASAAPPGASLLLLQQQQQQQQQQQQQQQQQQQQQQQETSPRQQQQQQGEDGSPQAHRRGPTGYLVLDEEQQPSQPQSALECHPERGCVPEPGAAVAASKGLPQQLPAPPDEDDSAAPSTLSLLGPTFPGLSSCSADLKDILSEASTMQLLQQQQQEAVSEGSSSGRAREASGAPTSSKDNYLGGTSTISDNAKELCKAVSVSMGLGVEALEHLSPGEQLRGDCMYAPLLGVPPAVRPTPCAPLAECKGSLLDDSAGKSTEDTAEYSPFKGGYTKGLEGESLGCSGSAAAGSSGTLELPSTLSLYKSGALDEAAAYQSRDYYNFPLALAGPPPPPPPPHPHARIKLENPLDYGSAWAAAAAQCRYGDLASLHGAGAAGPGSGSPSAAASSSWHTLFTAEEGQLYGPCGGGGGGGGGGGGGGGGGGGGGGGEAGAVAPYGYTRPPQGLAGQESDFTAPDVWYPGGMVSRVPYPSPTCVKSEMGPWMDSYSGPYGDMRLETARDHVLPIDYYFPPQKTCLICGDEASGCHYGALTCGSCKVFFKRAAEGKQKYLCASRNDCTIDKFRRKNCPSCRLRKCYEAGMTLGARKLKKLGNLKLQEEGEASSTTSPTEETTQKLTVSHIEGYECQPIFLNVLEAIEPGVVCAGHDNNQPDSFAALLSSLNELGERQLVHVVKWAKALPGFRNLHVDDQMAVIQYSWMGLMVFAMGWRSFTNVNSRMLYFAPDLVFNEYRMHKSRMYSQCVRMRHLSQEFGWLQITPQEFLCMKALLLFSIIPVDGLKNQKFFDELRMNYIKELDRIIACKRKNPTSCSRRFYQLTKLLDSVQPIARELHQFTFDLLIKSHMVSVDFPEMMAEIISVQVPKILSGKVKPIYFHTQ
# ASSAY REMARKS: Nuclear hormone receptor binding assay, AR
# RECORDED CONDITIONS: HEK293 cell lysate expressing human AR, [3H]-methyltrienolone; mean of 5 determinations
MEASUREMENT LABEL: Ki (nM)
Give the value in nM but do not write nM after it.

Data request: Tell me measured Ki for CC/C(=C1\c2ccc(Cl)cc2OCc2ncccc21)c1cccc(NS(C)(=O)=O)c1 please.
Data returned: 16.2

====

# TGT: human MR (mineralocorticoid receptor) (Homo sapiens, UniProt P08235)
# Sequence (P08235 1-984): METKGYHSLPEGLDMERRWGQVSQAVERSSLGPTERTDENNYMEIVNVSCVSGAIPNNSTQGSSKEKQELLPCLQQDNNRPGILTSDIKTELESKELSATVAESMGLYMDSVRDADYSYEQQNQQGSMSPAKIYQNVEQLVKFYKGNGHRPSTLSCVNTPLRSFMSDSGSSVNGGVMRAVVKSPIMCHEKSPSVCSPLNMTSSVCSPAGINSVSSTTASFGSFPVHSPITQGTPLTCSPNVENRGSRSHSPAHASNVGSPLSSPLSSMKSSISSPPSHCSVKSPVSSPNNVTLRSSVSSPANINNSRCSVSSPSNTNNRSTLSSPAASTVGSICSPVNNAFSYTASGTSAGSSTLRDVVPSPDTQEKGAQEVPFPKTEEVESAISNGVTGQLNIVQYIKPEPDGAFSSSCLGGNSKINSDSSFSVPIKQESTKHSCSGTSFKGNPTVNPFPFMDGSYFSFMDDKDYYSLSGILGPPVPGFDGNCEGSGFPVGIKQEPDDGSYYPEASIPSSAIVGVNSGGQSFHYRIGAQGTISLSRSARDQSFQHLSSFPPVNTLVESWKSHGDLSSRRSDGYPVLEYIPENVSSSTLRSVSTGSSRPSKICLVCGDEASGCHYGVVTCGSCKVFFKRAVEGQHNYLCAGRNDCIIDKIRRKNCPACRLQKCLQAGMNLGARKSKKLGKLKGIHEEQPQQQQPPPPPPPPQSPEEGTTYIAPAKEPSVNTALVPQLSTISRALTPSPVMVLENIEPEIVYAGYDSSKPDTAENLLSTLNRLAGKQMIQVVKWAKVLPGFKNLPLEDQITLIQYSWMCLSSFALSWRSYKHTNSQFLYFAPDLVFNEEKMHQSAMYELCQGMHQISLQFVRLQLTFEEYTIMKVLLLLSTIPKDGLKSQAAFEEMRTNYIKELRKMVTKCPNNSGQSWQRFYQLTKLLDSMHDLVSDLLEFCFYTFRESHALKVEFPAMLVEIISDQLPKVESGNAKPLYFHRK
# ASSAY REMARKS: Nuclear hormone receptor binding assay, MR
# RECORDED CONDITIONS: HEK293 cell lysate expressing human MR, [3H]-aldosterone; mean of 5 determinations
MEASUREMENT LABEL: Ki

Data request: Tell me measured Ki for CC/C(=C1\c2ccc(Cl)cc2OCc2ncccc21)c1cccc(NS(C)(=O)=O)c1 [Compound (I)] please.
Data returned: 117 nM

====

# TGT: human progesterone receptor (PR) (Homo sapiens)
# Sequence (P06401 whole entry): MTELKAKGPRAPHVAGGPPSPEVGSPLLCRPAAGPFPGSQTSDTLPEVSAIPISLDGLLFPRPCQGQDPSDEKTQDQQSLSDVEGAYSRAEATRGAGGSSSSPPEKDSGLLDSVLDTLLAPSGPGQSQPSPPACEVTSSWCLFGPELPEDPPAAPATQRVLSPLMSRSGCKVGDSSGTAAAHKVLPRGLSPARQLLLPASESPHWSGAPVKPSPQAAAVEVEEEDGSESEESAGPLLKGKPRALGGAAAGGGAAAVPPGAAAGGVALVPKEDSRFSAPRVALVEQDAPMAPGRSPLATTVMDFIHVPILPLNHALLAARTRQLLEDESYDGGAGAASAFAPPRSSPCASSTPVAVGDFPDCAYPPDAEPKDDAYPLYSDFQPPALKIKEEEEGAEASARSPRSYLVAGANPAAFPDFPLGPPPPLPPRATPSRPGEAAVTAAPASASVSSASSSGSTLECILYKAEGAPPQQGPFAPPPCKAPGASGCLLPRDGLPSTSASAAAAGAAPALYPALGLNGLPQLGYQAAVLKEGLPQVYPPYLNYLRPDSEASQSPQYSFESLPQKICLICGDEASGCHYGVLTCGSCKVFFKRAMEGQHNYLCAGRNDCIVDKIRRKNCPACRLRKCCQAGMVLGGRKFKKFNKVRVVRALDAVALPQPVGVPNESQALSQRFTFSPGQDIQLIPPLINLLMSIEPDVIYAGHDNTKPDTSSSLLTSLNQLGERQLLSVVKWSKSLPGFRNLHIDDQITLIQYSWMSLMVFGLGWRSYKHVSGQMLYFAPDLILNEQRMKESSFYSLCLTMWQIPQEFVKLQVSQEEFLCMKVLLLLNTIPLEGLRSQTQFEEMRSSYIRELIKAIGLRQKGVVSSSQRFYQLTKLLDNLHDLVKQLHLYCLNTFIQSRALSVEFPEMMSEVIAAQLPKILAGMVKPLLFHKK
# ASSAY REMARKS: Nuclear hormone receptor functional modulation assay (GRE-luciferase, HEK293), PR
# RECORDED CONDITIONS: agonist mode, activating transcription
pEC50: −log10 of the molar value.
MEASUREMENT LABEL: pEC50

Data request: Tell me measured pEC50 for CC/C(=C1\c2ccc(Cl)cc2OCc2ncccc21)c1cccc(NS(C)(=O)=O)c1 please.
Data returned: < 5.00
